From: ChEMBL document CHEMBL1140340

In this section we review reported pKi values for a set of compounds.
# SUBJECT_OF_TEST: Sodium-dependent dopamine transporter (Rattus norvegicus, UniProt P23977)
# Sequence (P23977 whole entry): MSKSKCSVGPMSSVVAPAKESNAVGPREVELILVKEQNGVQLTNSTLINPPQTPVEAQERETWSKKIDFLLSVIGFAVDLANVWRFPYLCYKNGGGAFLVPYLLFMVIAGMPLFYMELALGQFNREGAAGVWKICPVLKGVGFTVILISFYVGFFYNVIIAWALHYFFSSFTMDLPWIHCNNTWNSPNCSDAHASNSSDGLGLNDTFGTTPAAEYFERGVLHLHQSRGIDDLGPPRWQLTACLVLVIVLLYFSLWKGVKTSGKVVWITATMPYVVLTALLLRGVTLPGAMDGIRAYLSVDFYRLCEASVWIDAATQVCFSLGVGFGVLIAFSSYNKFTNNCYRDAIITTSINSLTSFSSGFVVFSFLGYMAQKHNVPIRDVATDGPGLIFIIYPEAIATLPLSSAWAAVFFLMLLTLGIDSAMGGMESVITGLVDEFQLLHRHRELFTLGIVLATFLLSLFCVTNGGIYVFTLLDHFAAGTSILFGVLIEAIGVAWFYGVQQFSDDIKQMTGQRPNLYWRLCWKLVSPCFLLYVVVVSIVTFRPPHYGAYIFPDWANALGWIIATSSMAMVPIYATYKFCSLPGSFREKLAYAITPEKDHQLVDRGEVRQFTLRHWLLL
# TEST_SUMMARY: Inhibition of rat brain dopamine transporter as accumulation of [3H]DA
# pKi = -log10(concentration in molar units)

{"COMPOUND": "OC1CC(C(c2ccccc2)c2ccccc2)OCC1NCc1ccc(F)cc1 (single isomer, unassigned)", "ENDPOINT": "pKi", "TEST_VALUE": 6.49}
{"COMPOUND": "OC1CC(C(c2ccccc2)c2ccccc2)OCC1NCc1ccccc1 (single isomer, unassigned)", "ENDPOINT": "pKi", "TEST_VALUE": 6.60}

Prompt: May I ask what pKi has been recorded for O[C@@H]1C[C@@H](C(c2ccccc2)c2ccccc2)OC[C@H]1NCc1ccccc1 ?
Completion: 6.35
